- experimentalDetails: Cytotoxicity assay (CellTiter-Glo, 72 h), Jurkat
- Format: cell-based
- testContext: human, Jurkat cells (T lymphoma), conc 25 uM, raw data (replicates)
Catalogue of compounds with associated viability at 72 h, 25 uM
Record the value in %, omitting the unit from your answer.

compound	measurement
CO[C@H]1C[C@@H]2CC[C@@H](C)[C@@](O)(O2)C(=O)C(=O)N2CCCC[C@H]2C(=O)O[C@H]([C@H](C)C[C@@H]2CC[C@@H](O)[C@H](OC)C2)CC(=O)[C@H](C)/C=C(\C)[C@@H](O)CC[C@H](C)/C=C/C=C/C=C/1C	0.741
COC1CC2CCC(C)C(O)(O2)C(=O)C(=O)N2CCCCC2C(=O)OC(C(C)CC2CCC(O)C(OC)C2)CC(O)CC(=O)C(C)C=C(C)C(O)CC(=O)C(C)CC(C)C=CC=CC=C1C (stereo not drawn)	24.7
COC1CC2CCC(C)C(O)(O2)C(=O)C(=O)N2CCCCC2C(=O)OC(C(C)CC2CCC(O)C(OC)C2)CC(=O)C(C)C=C(C)C(O)CC(=O)C(C)C=C(C)C=CC=CC=C1C (stereo not drawn)	31.3

Task item: Determine from records and report viability at 72 h, 25 uM for `CO[C@@H]1/C=C/C=C/[C@@H](C)C[C@@H](C)C(=O)C[C@H](O)/C(C)=C/[C@@H](C)C(=O)C[C@@H]([C@H](C)C[C@@H]2CC[C@@H](O)[C@H](OC)C2)OC(=O)[C@@H]2CCCCN2C(=O)C(=O)[C@]2(O)O[C@@H](CC[C@H]2C)C1`
Reply: 27.4

Task item: Determine from records and report viability at 72 h, 25 uM for CO[C@@H]1C[C@H](C[C@@H](C)[C@@H]2CC(=O)[C@H](C)/C=C(\C)[C@@H](O)[C@@H](OC)C(=O)[C@H](C)C[C@H](C)/C=C/C=C/C=C(\C)[C@H](O)C[C@@H]3CC[C@@H](C)[C@@](O)(O3)C(=O)C(=O)N3CCCC[C@H]3C(=O)O2)CC[C@H]1O [Compound 17, (16R)-16-O-demethyl rapamycin]
Reply: 28.8

* * *

- experimentalDetails: Cytotoxicity assay (CellTiter-Glo, 72 h), Jurkat
- Type: cell-based
- testContext: human, Jurkat cells (T lymphoma), conc 0.012207 uM, raw data (replicates)
Catalogue of compounds with associated viability at 72 h, 0.012207 uM

compound	measurement
CO[C@H]1C[C@@H]2CC[C@@H](C)[C@@](O)(O2)C(=O)C(=O)N2CCCC[C@H]2C(=O)O[C@H]([C@H](C)C[C@@H]2CC[C@@H](O)[C@H](OC)C2)CC(=O)[C@H](C)/C=C(\C)[C@@H](O)CC(=O)[C@H](C)C[C@H](C)/C=C/C=C(C)/C=C/1C [Compound 2, 27-demethoxy-19-methyl rapamycin]	103%
CO[C@H]1C[C@@H]2CC[C@@H](C)[C@@](O)(O2)C(=O)C(=O)N2CCCC[C@H]2C(=O)O[C@H]([C@H](C)C[C@@H]2CC[C@@H](O)[C@H](OC)C2)CC(=O)[C@H](C)/C=C(\C)[C@@H](O)CC[C@H](C)/C=C/C=C/C=C/1C [Compound 7]	90.6%
COC1CC2CCC(C)C(O)(O2)C(=O)C(=O)N2CCCCC2C(=O)OC(C(C)CC2CCC(O)C(OC)C2)CCC(C)C=C(C)C(O)C(OC)C(=O)C(C)CC(C)C=CC=CC=C1C (stereo not shown) [Compound 16, 32-desketorapamycin]	28.9%

Task item: Determine from records and report viability at 72 h, 0.012207 uM for CO[C@@H]1C[C@H](C[C@@H](C)[C@@H]2CC(=O)[C@H](C)/C=C(\C)[C@@H](O)[C@@H](OC)C(=O)[C@H](C)C[C@H](C)/C=C/C=C/C=C(\C)[C@H](O)C[C@@H]3CC[C@@H](C)[C@@](O)(O3)C(=O)C(=O)N3CCCC[C@H]3C(=O)O2)CC[C@H]1O [Compound 17, (16R)-16-O-demethyl rapamycin]
Reply: 74.7%

* * *

- experimentalDetails: Cytotoxicity assay (CellTiter-Glo, 72 h), MESO-1
- Format: cell-based
- testContext: human, MESO-1 malignant pleural mesothelioma cells, conc 50 uM; raw replicate data; read-out: MESO1 viability (%)
attributeMeasured: viability at 72 h, 50 uM (%)
Record the value in %, omitting the unit from your answer.

Use these answered entries as a reference point.
compound	unitSymbol	viability at 72 h, 50 uM
CO[C@H]1C[C@@H]2CC[C@@H](C)[C@@](O)(O2)C(=O)C(=O)N2CCCC[C@H]2C(=O)O[C@H]([C@H](C)C[C@@H]2CC[C@@H](O)[C@H](OC)C2)CC(=O)[C@H](C)/C=C(\C)[C@@H](O)CC[C@H](C)/C=C/C=C/C=C/1C	%	23.2
COC1CC2CCC(C)C(O)(O2)C(=O)C(=O)N2CCCCC2C(=O)OC(C(C)CC2CCC(O)C(OC)C2)CC(O)CC(=O)C(C)C=C(C)C(O)CC(=O)C(C)CC(C)C=CC=CC=C1C (centres unmarked)	%	32.5
CO[C@H]1C[C@@H]2CC[C@@H](C)[C@@](O)(O2)C(=O)C(=O)N2CCCC[C@H]2C(=O)O[C@H]([C@H](C)C[C@@H]2CC[C@@H](O)[C@H](OC)C2)CC(=O)[C@H](C)/C=C(\C)[C@@H](O)CC(=O)[C@H](C)C[C@H](C)/C=C/C=C(C)/C=C/1C	%	2.4
CO[C@@H]1C[C@H](C[C@@H](C)[C@@H]2CC(=O)[C@H](C)/C=C(\C)[C@@H](O)[C@@H](OC)C(=O)[C@H](C)C[C@H](C)/C=C/C=C/C=C(\C)[C@H](O)C[C@@H]3CC[C@@H](C)[C@@](O)(O3)C(=O)C(=O)N3CCCC[C@H]3C(=O)O2)CC[C@H]1O [Compound 17, (16R)-16-O-demethyl rapamycin]	%	61.5

Please turn your attention to the following entry.
Task item: Determine from records and report viability at 72 h, 50 uM for COC1CC2CCC(C)C(O)(O2)C(=O)C(=O)N2CCCCC2C(=O)OC(C(C)CC2CCC(O)C(OC)C2)CC(=O)C(C)C=C(C)C(O)CC(=O)C(C)C=C(C)C=CC=CC=C1C (centres unmarked)
Reply: 59.3

* * *

- experimentalDetails: Cytotoxicity assay (CellTiter-Glo, 72 h), Jurkat
- Format: cell-based
- testContext: human, Jurkat cells (T lymphoma), conc 0.0488281 uM, raw data (replicates)
attributeMeasured: viability at 72 h, 0.0488281 uM (%)
Record the value in %, omitting the unit from your answer.

compound	unitSymbol	viability at 72 h, 0.0488281 uM
CO[C@@H]1/C=C/C=C/[C@@H](C)C[C@@H](C)C(=O)C[C@H](O)/C(C)=C/[C@@H](C)C(=O)C[C@@H]([C@H](C)C[C@@H]2CC[C@@H](O)[C@H](OC)C2)OC(=O)[C@@H]2CCCCN2C(=O)C(=O)[C@]2(O)O[C@@H](CC[C@H]2C)C1	%	86

Please turn your attention to the following entry.
Task item: Determine from records and report viability at 72 h, 0.0488281 uM for `CO[C@H]1C[C@@H]2CC[C@@H](C)[C@@](O)(O2)C(=O)C(=O)N2CCCC[C@H]2C(=O)O[C@H]([C@H](C)C[C@@H]2CC[C@@H](O)[C@H](OC)C2)CC(=O)[C@H](C)/C=C(\C)[C@@H](O)CC[C@H](C)/C=C/C=C/C=C/1C`
Reply: 87

* * *

Catalogue of compounds with associated viability at 72 h, 0.0244141 uM
- experimentalDetails: Cytotoxicity assay (CellTiter-Glo, 72 h), SKOV-3
- Assay type: cell-based, human
- testContext: human, SKOV-3 cells (ovarian adenocarcinoma), conc 0.0244141 uM; raw replicate data; read-out: SKOV3 viability (%)
Record the value in %, omitting the unit from your answer.

Use these answered entries as a reference point.
compound	attributeMeasured	measurement
COC1CC2CCC(C)C(O)(O2)C(=O)C(=O)N2CCCCC2C(=O)OC(C(C)CC2CCC(O)C(OC)C2)CC(=O)C(C)C=C(C)C(O)C(OC)C(=O)C(C)CC(C)C=CCCC=C1C (stereo not drawn)	viability at 72 h, 0.0244141 uM	102
CO[C@@H]1C[C@H](C[C@@H](C)[C@@H]2CC(=O)[C@H](C)/C=C(\C)[C@@H](O)[C@@H](OC)C(=O)[C@H](C)C[C@H](C)/C=C/C=C/C=C(\C)[C@H](O)C[C@@H]3CC[C@@H](C)[C@@](O)(O3)C(=O)C(=O)N3CCCC[C@H]3C(=O)O2)CC[C@H]1O [Compound 17, (16R)-16-O-demethyl rapamycin]	viability at 72 h, 0.0244141 uM	95.9
CO[C@@H]1/C=C/C=C/[C@@H](C)C[C@@H](C)C(=O)C[C@H](O)/C(C)=C/[C@@H](C)C(=O)C[C@@H]([C@H](C)C[C@@H]2CC[C@@H](O)[C@H](OC)C2)OC(=O)[C@@H]2CCCCN2C(=O)C(=O)[C@]2(O)O[C@@H](CC[C@H]2C)C1	viability at 72 h, 0.0244141 uM	97.2
COC1CC2CCC(C)C(O)(O2)C(=O)C(=O)N2CCCCC2C(=O)OC(C(C)CC2CCC(O)C(OC)C2)CC(O)CC(=O)C(C)C=C(C)C(O)CC(=O)C(C)CC(C)C=CC=CC=C1C (stereo not drawn)	viability at 72 h, 0.0244141 uM	97.8
CO[C@H]1C[C@@H]2CC[C@@H](C)[C@@](O)(O2)C(=O)C(=O)N2CCCC[C@H]2C(=O)O[C@H]([C@H](C)C[C@@H]2CC[C@@H](O)[C@H](OC)C2)CC(=O)[C@H](C)/C=C(\C)[C@@H](O)CC(=O)[C@H](C)C[C@H](C)/C=C/C=C(C)/C=C/1C	viability at 72 h, 0.0244141 uM	96.5

Please turn your attention to the following entry.
Task item: Determine from records and report viability at 72 h, 0.0244141 uM for `CO[C@H]1C[C@@H]2CC[C@@H](C)[C@@](O)(O2)C(=O)C(=O)N2CCCC[C@H]2C(=O)O[C@H]([C@H](C)C[C@@H]2CC[C@@H](O)[C@H](OC)C2)CC(=O)[C@H](C)/C=C(\C)[C@@H](O)CC[C@H](C)/C=C/C=C/C=C/1C`
Reply: 94.4
